Recorded measurements of Solubility of the medicament in the emulsion, one per entry
- details: Ester mixture D (50% soy bean oil and 50% glycerol triesters of caprylic acid 70% and capric acid 30%); lipid content 20% by weight; room temperature
outcome.measure: Solubility of the medicament in the emulsion

{"compound": "COCCOC(=O)C1=C(C)NC(C)=C(C(=O)OC(C)C)C1c1cccc([N+](=O)[O-])c1 (stereo not shown)", "observed.value": "0.08 % (W/W)"}
{"compound": "CCOC(=O)C1=C(C)NC(C)=C(C(=O)OC)C1c1cccc([N+](=O)[O-])c1 (stereo not shown)", "observed.value": "0.05 % (W/W)"}
{"compound": "COC(=O)C1=C(C)NC(C)=C(C(=O)OCC(C)C)C1c1ccccc1[N+](=O)[O-] (stereo not shown)", "observed.value": "0.08 % (W/W)"}
{"compound": "CC(c1ccc(Cl)c(Cl)c1)N1N=C(N)CC1=O (stereo not shown)", "observed.value": "0.02 % (W/W)"}
